System: Neisseria gonorrhoeae
assay_name: Expected efficacy of antibiotic agents
Type: cell-based
experimental_context: Gram: neg
observed_property: efficacy against Neisseria gonorrhoeae

[
  {
    "smiles_input": "CN[C@H](CC(C)C)C(=O)N[C@H]1C(=O)N[C@@H](CC(N)=O)C(=O)N[C@H]2C(=O)N[C@H]3C(=O)N[C@H](C(=O)N[C@H](C(=O)O)c4cc(O)cc(O)c4-c4cc3ccc4O)[C@H](O)c3ccc(c(Cl)c3)Oc3cc2cc(c3O[C@@H]2O[C@H](CO)[C@@H](O)[C@H](O)[C@H]2O[C@H]2C[C@](C)(N)[C@H](O)[C@H](C)O2)Oc2ccc(cc2Cl)[C@H]1O",
    "reported_result": "no"
  },
  {
    "smiles_input": "C/C(=C\\C(=O)OCCCCCCCCC(=O)O)C[C@@H]1OC[C@H](C[C@@H]2O[C@H]2[C@@H](C)[C@H](C)O)[C@@H](O)[C@H]1O",
    "reported_result": "no"
  },
  {
    "smiles_input": "CO/N=C(\\C(=O)N[C@@H]1C(=O)N2C(C(=O)O)=C(CSc3nc(=O)c(=O)[nH]n3C)CS[C@H]12)c1csc(N)n1",
    "reported_result": "yes"
  },
  {
    "smiles_input": "NC[C@H]1O[C@H](O[C@H]2[C@H](O)[C@@H](O[C@H]3O[C@H](CO)[C@@H](O)[C@H](N)[C@H]3O)[C@H](N)C[C@@H]2N)[C@H](N)C[C@@H]1O",
    "reported_result": "no"
  },
  {
    "smiles_input": "O=C(O)c1cn(C2CC2)c2cc(N3CCNCC3)c(F)cc2c1=O",
    "reported_result": "yes"
  }
]
